In this section we review reported TGI values for a set of compounds.
- Tested on: MDA-MB-435
- test.name: NCI tumour cell line growth inhibition, 48 h

Before answering, review these 4 worked examples.
CCOC(=O)Cn1nnc2ccc(Nc3nc4ccccc4nc3-c3ccccc3)cc21 ... > 100 µM
C[N+](C)(C)c1ncnc2c1ncn2C1CCCO1 (stereo not drawn) ... > 100 µM
Cc1cnc2c(c1C)C(=O)c1ccccc1C2=O ... 39.1 µM
CC(C)(C)OC(=O)NCCCCC(N)NC(=O)c1ccccc1 (stereo not drawn) ... > 100 µM

Look up TGI: "CCOC(=O)c1cc2c(cc1Cl)SC(=Nc1ccccc1)N(S(=O)(=O)c1ccc(Br)s1)S2(=O)=O"
28.3 µM

Which value of TGI has been reported for "c1cc(N2CCN(c3ccc(C4=NCCCN4)cc3)CC2)ccc1C1=NCCCN1" in the records?
> 20.3 µM

// lookup TGI for "Cc1ccncc1C(N)=O"
> 100 µM

Can you share its TGI? I mean this compound: CC1CC(C#N)=C2NCCN2C1=O (stereo not drawn)
50.1 µM

Source of measurements: PubChem BioAssay (NCI)
